Overview of reported cytotoxicity at 10 µM across a group of compounds:
assay: Toxicity liver stage against HepG2, at 10uM; assay type: cell-based; design: test concentration 10 uM, cell line HepG2-A16-CD81EGFP; details: human, HepG2-A16-CD81EGFP cells; read-out: INHIBITION
All answers are understood in %, so give the number only.

| compound | observed |
| --- | --- |
| CC(=O)NCC1CCN(C(=O)NCCc2ccc(Cl)s2)CC1 | -6.19 |
| Cc1ccc(F)cc1-n1c(CCCN2CCOCC2)n[nH]c1=O | 7.32 |
| CCN1CCCC1CN(CCN(C)C)S(=O)(=O)c1ccc(C#N)cc1 (stereo unspecified) | -28.3 |
| O=C(Nc1ccnn1Cc1ccccc1Cl)C1CCS(=O)(=O)C1 (stereo unspecified) | -3.95 |
| CN(C)c1ncc(-c2cc(C(=O)N3CCCC3)n(CC3CC3)c2)cn1 | -0.376 |
| Cc1cc(-c2cc(N)c(=O)n(CC(=O)NC3CCCCC3)n2)c(C)o1 | 6.79 |
| CCNc1ncc(C(=O)NC2COC3(CCCC3)C2)cn1 (stereo unspecified) | -4.53 |
| Cc1cc(C2CCCN2C(=O)Nc2cn[nH]c2)on1 (stereo unspecified) | 1.24 |
| CCCn1nc(C(=O)N2CCCC2c2noc(C)n2)ccc1=O (stereo unspecified) | 3.57 |
| Cc1nn(C)cc1C(=O)N1CCCC(n2nnc3cc(F)ccc32)C1 (stereo unspecified) | -11 |

# evaluate next
For CC(C)N1CCCn2nc(C(=O)NCc3ccccc3F)cc2C1 , what is its reported cytotoxicity at 10 µM?
-4.87

Numbers sourced from ChEMBL document CHEMBL4513216.
